- Tested on: 192522-019-R-J2-PDC complex tumor spheroid viability
- ASSAY NOTES: Anticancer human tumor 192522-019-R-J2-PDC patient-derived colon adenocarcinoma cell line growth inhibition [POLQ]
- PROTOCOL CONDITIONS: second compound 10 µM; first compound 1 µM; stronger effect = lower value
VALUE TYPE: viability, T/C (%)
Numbers only, in %.

// for each compound in input: emit viability, T/C
1. O=c1[nH]cc(F)c(=O)[nH]1 + Nc1ccc(C#CCN(C(=O)Cc2ncc(C(F)(F)F)cc2C(F)(F)F)c2ccc(F)cc2)nn1
2. COc1cccc2c1C(=O)c1c(O)c3c(c(O)c1C2=O)CC(O)(C(=O)CO)CC3OC1CC(N)C(O)C(C)O1 (stereo not given) + Cc1cccc(N(C)C(=O)C2C(O)CCN2c2nc(C)cc(C(F)(F)F)c2C#N)c1
3. C=CC(=O)N1CCN(c2nc(=O)n(-c3c(C)ccnc3C(C)C)c3nc(-c4c(O)cccc4F)c(F)cc23)C(C)C1 (stereo not given) + Cc1cccc(N(C)C(=O)C2C(O)CCN2c2nc(C)cc(C(F)(F)F)c2C#N)c1
4. CC1COCCN1c1cc(C2(O)CC3CCC(C2)O3)c2cnn(-c3ccn[nH]3)c2n1 (stereo not given) + Nc1ccc(C#CCN(C(=O)Cc2ncc(C(F)(F)F)cc2C(F)(F)F)c2ccc(F)cc2)nn1
5. COc1cccc2c1C(=O)c1c(O)c3c(c(O)c1C2=O)CC(O)(C(=O)CO)CC3OC1CC(N)C(O)C(C)O1 (stereo not given) + COC1C(OC(N)=O)C(O)C(Oc2ccc3c(O)c(NC(=O)c4ccc(O)c(CC=C(C)C)c4)c(=O)oc3c2C)OC1(C)C

85.9
62.7
113
36.4
78

---

- System: 192522-019-R-J2-PDC complex tumor spheroid viability
- ASSAY NOTES: Anticancer human tumor 192522-019-R-J2-PDC cell line growth inhibition [POLQ];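 note: spheroids exposed to drugs for seven days before reading; 100% = DMSO vehicle control viability in luminescence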
- PROTOCOL CONDITIONS: second compound 10 µM; first compound 1 µM; stronger effect = lower value
VALUE TYPE: viability, T/C (%)
Numbers only, in %.

# annotated cases, reported viability, T/C shown
What does the record list as viability, T/C for O=c1[nH]cc(F)c(=O)[nH]1 + COC1C(OC(N)=O)C(O)C(Oc2ccc3c(O)c(NC(=O)c4ccc(O)c(CC=C(C)C)c4)c(=O)oc3c2C)OC1(C)C ?
73.1

Similarly, COc1cccc(OCCCN)c1-c1cc(Nc2cnc(C#N)cn2)n[nH]1 + Cc1cccc(N(C)C(=O)C2C(O)CCN2c2nc(C)cc(C(F)(F)F)c2C#N)c1 ?
43.6

Similarly, COc1cc2cc(C(=O)CCC(=O)O)sc2cc1OC + Cc1cccc(N(C)C(=O)C2C(O)CCN2c2nc(C)cc(C(F)(F)F)c2C#N)c1 ?
102

Similarly, CCc1cc2c(N3CCc4c(cc(Cn5ccnc5)cc4-c4cn(C)nc4C(F)(F)F)C3=O)ccnc2c(OC)n1 + COC1C(OC(N)=O)C(O)C(Oc2ccc3c(O)c(NC(=O)c4ccc(O)c(CC=C(C)C)c4)c(=O)oc3c2C)OC1(C)C ?
92.1

Similarly, CC(C)n1c(=O)n(C)c2cnc3cc(F)c(-c4ccc(OCCCN5CCCCC5)nc4)cc3c21 + Cc1cccc(N(C)C(=O)C2C(O)CCN2c2nc(C)cc(C(F)(F)F)c2C#N)c1 ?
114

API: the following record is the query input.
What does the record list as viability, T/C for COc1cc2cc(C(=O)CCC(=O)O)sc2cc1OC + Nc1ccc(C#CCN(C(=O)Cc2ncc(C(F)(F)F)cc2C(F)(F)F)c2ccc(F)cc2)nn1 ?
103

---

- Tested on: 192522-019-R-J2-PDC complex tumor spheroid viability
- ASSAY NOTES: Anticancer human tumor 192522-019-R-J2-PDC cell line growth inhibition [POLQ];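 note: spheroids exposed to drugs for seven days before reading; 100% = DMSO vehicle control viability in luminescence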
- PROTOCOL CONDITIONS: second compound 3.16 µM; first compound 10 µM; stronger effect = lower value
VALUE TYPE: viability, T/C (%)
One number for each entry, in %.

# annotated cases, reported viability, T/C shown
Could you share what viability, T/C was measured for COc1cc(C2c3cc4c(cc3C(OC3OC5COC(C)OC5C(O)C3O)C3COC(=O)C23)OCO4)cc(OC)c1O (configuration not stated) + Cc1cccc(N(C)C(=O)C2C(O)CCN2c2nc(C)cc(C(F)(F)F)c2C#N)c1 , tested on 192522-019-R-J2-PDC complex tumor spheroid viability?
63.1

Similarly, CC(C)n1c(=O)n(C)c2cnc3cc(F)c(-c4ccc(OCCCN5CCCCC5)nc4)cc3c21 + Nc1ccc(C#CCN(C(=O)Cc2ncc(C(F)(F)F)cc2C(F)(F)F)c2ccc(F)cc2)nn1 ?
112

Similarly, CC1COCCN1c1cc(-c2ccnn2C)c2ccnc(-c3ccn[nH]3)c2n1 (configuration not stated) + COC1C(OC(N)=O)C(O)C(Oc2ccc3c(O)c(NC(=O)c4ccc(O)c(CC=C(C)C)c4)c(=O)oc3c2C)OC1(C)C ?
48.3

Similarly, Nc1ccn(C2OC(CO)C(O)C2(F)F)c(=O)n1 (configuration not stated) + Nc1ccc(C#CCN(C(=O)Cc2ncc(C(F)(F)F)cc2C(F)(F)F)c2ccc(F)cc2)nn1 ?
71.4

Similarly, COc1cccc2c1C(=O)c1c(O)c3c(c(O)c1C2=O)CC(O)(C(=O)CO)CC3OC1CC(N)C(O)C(C)O1 (configuration not stated) + Nc1ccc(C#CCN(C(=O)Cc2ncc(C(F)(F)F)cc2C(F)(F)F)c2ccc(F)cc2)nn1 ?
58.1

// for each compound in input: emit viability, T/C
1. COc1cc(C2c3cc4c(cc3C(OC3OC5COC(C)OC5C(O)C3O)C3COC(=O)C23)OCO4)cc(OC)c1O (configuration not stated) + COC1C(OC(N)=O)C(O)C(Oc2ccc3c(O)c(NC(=O)c4ccc(O)c(CC=C(C)C)c4)c(=O)oc3c2C)OC1(C)C
2. C#Cc1c(F)ccc2cc(O)cc(-c3ncc4c(N5CC6CCC(C5)N6)nc(OCC56CCCN5CC(F)C6)nc4c3F)c12 (configuration not stated) + Nc1ccc(C#CCN(C(=O)Cc2ncc(C(F)(F)F)cc2C(F)(F)F)c2ccc(F)cc2)nn1
3. O=c1[nH]cc(F)c(=O)[nH]1 + Cc1cccc(N(C)C(=O)C2C(O)CCN2c2nc(C)cc(C(F)(F)F)c2C#N)c1
4. CCc1cc2c(N3CCc4c(cc(Cn5ccnc5)cc4-c4cn(C)nc4C(F)(F)F)C3=O)cc(C)nc2c(OC)n1 + COC1C(OC(N)=O)C(O)C(Oc2ccc3c(O)c(NC(=O)c4ccc(O)c(CC=C(C)C)c4)c(=O)oc3c2C)OC1(C)C
5. CC1COCCN1c1cc(-c2ccnn2C)c2ccnc(-c3ccn[nH]3)c2n1 (configuration not stated) + Cc1cccc(N(C)C(=O)C2C(O)CCN2c2nc(C)cc(C(F)(F)F)c2C#N)c1
6. O=C(c1cc(Cc2n[nH]c(=O)c3ccccc23)ccc1F)N1CCN(C(=O)C2CC2)CC1 + COC1C(OC(N)=O)C(O)C(Oc2ccc3c(O)c(NC(=O)c4ccc(O)c(CC=C(C)C)c4)c(=O)oc3c2C)OC1(C)C
7. CC1COCCN1c1cc(-c2ccnn2C)c2ccnc(-c3ccn[nH]3)c2n1 (configuration not stated) + Nc1ccc(C#CCN(C(=O)Cc2ncc(C(F)(F)F)cc2C(F)(F)F)c2ccc(F)cc2)nn1

1. 60.6
2. 70.4
3. 78.6
4. 66.2
5. 57.9
6. 99.2
7. 47.1

---

Would you kindly list viability, T/C for each of these compounds?
- Test system: 192522-019-R-J2-PDC complex tumor spheroid viability
- ASSAY NOTES: Anticancer human tumor 192522-019-R-J2-PDC cell line growth inhibition [POLQ];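 note: spheroids exposed to drugs for seven days before reading; 100% = DMSO vehicle control viability in luminescence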
- PROTOCOL CONDITIONS: second compound 0.316 µM; first compound 10 µM; stronger effect = lower value
Numbers only, in %.

What does the record list as viability, T/C for CCc1cc2c(N3CCc4c(cc(Cn5ccnc5)cc4-c4cn(C)nc4C(F)(F)F)C3=O)cc(C)nc2c(OC)n1 + Nc1ccc(C#CCN(C(=O)Cc2ncc(C(F)(F)F)cc2C(F)(F)F)c2ccc(F)cc2)nn1 ?
73.4

Similarly, C=CC(=O)N1CCN(c2nc(=O)n(-c3c(C)ccnc3C(C)C)c3nc(-c4c(O)cccc4F)c(F)cc23)C(C)C1 (centres undefined) + COC1C(OC(N)=O)C(O)C(Oc2ccc3c(O)c(NC(=O)c4ccc(O)c(CC=C(C)C)c4)c(=O)oc3c2C)OC1(C)C ?
114

Similarly, COc1ccc([C@@H](O)c2cc(-c3ncnc4cc(N5CCOCC5)ccc34)c(F)cc2Cl)nn1 + Cc1cccc(N(C)C(=O)C2C(O)CCN2c2nc(C)cc(C(F)(F)F)c2C#N)c1 ?
65

Similarly, CC1COCCN1c1cc(C2(O)CC3CCC(C2)O3)c2cnn(-c3ccn[nH]3)c2n1 (centres undefined) + Cc1cccc(N(C)C(=O)C2C(O)CCN2c2nc(C)cc(C(F)(F)F)c2C#N)c1 ?
52.3

Similarly, CC1COCCN1c1cc(-c2ccnn2C)c2ccnc(-c3ccn[nH]3)c2n1 (centres undefined) + Cc1cccc(N(C)C(=O)C2C(O)CCN2c2nc(C)cc(C(F)(F)F)c2C#N)c1 ?
48.8

// for each compound in input: emit viability, T/C
1. CCCS(=O)(=O)Nc1ccc(F)c(C(=O)c2c[nH]c3ncc(-c4ccc(Cl)cc4)cc23)c1F + Nc1ccc(C#CCN(C(=O)Cc2ncc(C(F)(F)F)cc2C(F)(F)F)c2ccc(F)cc2)nn1
2. CCCS(=O)(=O)Nc1ccc(F)c(C(=O)c2c[nH]c3ncc(-c4ccc(Cl)cc4)cc23)c1F + COC1C(OC(N)=O)C(O)C(Oc2ccc3c(O)c(NC(=O)c4ccc(O)c(CC=C(C)C)c4)c(=O)oc3c2C)OC1(C)C
3. COc1cc(C2c3cc4c(cc3C(OC3OC5COC(C)OC5C(O)C3O)C3COC(=O)C23)OCO4)cc(OC)c1O (centres undefined) + Cc1cccc(N(C)C(=O)C2C(O)CCN2c2nc(C)cc(C(F)(F)F)c2C#N)c1
4. CC(C)n1c(=O)n(C)c2cnc3cc(F)c(-c4ccc(OCCCN5CCCCC5)nc4)cc3c21 + Cc1cccc(N(C)C(=O)C2C(O)CCN2c2nc(C)cc(C(F)(F)F)c2C#N)c1
5. CC1COCCN1c1cc(-c2ccnn2C)c2ccnc(-c3ccn[nH]3)c2n1 (centres undefined) + COC1C(OC(N)=O)C(O)C(Oc2ccc3c(O)c(NC(=O)c4ccc(O)c(CC=C(C)C)c4)c(=O)oc3c2C)OC1(C)C

1: 83.6; 2: 108; 3: 68.3; 4: 104; 5: 47.6
